SYSTEM: Cin5 (UniProt P40917)
Sequence: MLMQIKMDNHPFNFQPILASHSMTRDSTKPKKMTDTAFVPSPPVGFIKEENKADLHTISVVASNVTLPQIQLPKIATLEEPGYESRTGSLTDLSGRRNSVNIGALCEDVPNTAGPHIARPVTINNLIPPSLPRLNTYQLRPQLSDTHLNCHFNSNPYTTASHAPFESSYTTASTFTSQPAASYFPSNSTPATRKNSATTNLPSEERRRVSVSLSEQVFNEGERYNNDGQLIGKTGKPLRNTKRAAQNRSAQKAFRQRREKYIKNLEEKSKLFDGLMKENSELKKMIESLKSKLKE
EXPERIMENT_NOTES: PBM E-score (8-mer binding enrichment) (E-score (-0.5 to 0.5)); higher = stronger / more preferred TF binding
CONDITION_DETAILS: protein concentration: 100 nM; construct: GST-full length
In all, about 33,000 sequences were measured (“E-score (-0.5 to 0.5)”: median about -0.0059, highest 2% from about 0.26 on). What follows is part of a selection rich in the highest values, with near analogues and random picks from the rest.
Some sequences, each annotated with its measured PBM E-score.
API doc: respond with a numeric literal and nothing else, no unit.

For orientation, consider the following solved cases.
INSERT INTO results (chain_sequence, assay_endpoint, assay_result) VALUES
  ('GTAAGCCA', 'PBM E-score', 0.264),
  ('ACATAAGC', 'PBM E-score', 0.437),
  ('ATCGTAAG', 'PBM E-score', 0.159),
  ('GTAAGCTA', 'PBM E-score', 0.36),
  ('CGGCTTAG', 'PBM E-score', -0.0489);

[in] Record request: PBM E-score value, item ACACGTAA
[out] 0.3

[in] Record request: PBM E-score value, item GAACTCAC
[out] -0.014

[in] Record request: PBM E-score value, item CGGCTTAA
[out] 0.19

[in] Record request: PBM E-score value, item CCCAGTTC
[out] 0.175

[in] Record request: PBM E-score value, item ACATAAGA
[out] 0.3

[in] Record request: PBM E-score value, item TATTACGA
[out] 0.257

[in] Record request: PBM E-score value, item ATAAGCTA
[out] 0.2

[in] Record request: PBM E-score value, item CCGTAAGC
[out] 0.332

====

SYSTEM: Cin5 (UniProt P40917)
Sequence: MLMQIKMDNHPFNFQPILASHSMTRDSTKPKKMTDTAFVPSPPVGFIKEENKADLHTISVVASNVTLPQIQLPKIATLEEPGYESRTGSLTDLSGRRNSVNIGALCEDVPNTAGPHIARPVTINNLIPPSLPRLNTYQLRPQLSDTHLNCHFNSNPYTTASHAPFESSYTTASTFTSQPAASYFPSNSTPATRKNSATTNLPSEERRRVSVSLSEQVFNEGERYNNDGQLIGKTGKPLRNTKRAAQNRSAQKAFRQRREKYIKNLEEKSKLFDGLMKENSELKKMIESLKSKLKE
EXPERIMENT_NOTES: PBM E-score (8-mer binding enrichment) (E-score (-0.5 to 0.5)); higher = stronger / more preferred TF binding
CONDITION_DETAILS: protein concentration: 100 nM; construct: GST-full length
The full ranking holds about 33,000 sequences; the median of “E-score (-0.5 to 0.5)” is about -0.0059, and the highest 2% start at about 0.26. Only a selection was taken, and the highest values are over-represented in it overall.
The class of a record is decided solely by its measured PBM E-score; consult low group (below -0.07), middle group (-0.07 to below 0.2), high group (0.2 or more)

Here are 4 sequences together with their reported answers.
INSERT INTO measurements (chain_sequence, assigned_class) VALUES
  ('GAGCGGAC', 'low group'),
  ('TCAGTGGA', 'low group'),
  ('ACCACCCT', 'low group'),
  ('ATGCTTGG', 'middle group');

[in] Textbook exercise: identify the category of the sequence given here, CGTAATAG , according to its measured value.
[out] high group

[in] Textbook exercise: identify the category of the sequence given here, GATTCTTA , according to its measured value.
[out] high group

[in] Textbook exercise: identify the category of the sequence given here, AGTAATAT , according to its measured value.
[out] high group

[in] Textbook exercise: identify the category of the sequence given here, ACATCAGC , according to its measured value.
[out] middle group

[in] Textbook exercise: identify the category of the sequence given here, AGTAATAG , according to its measured value.
[out] high group

[in] Textbook exercise: identify the category of the sequence given here, GCAGTACC , according to its measured value.
[out] middle group

====

SYSTEM: Cin5 (UniProt P40917)
Sequence: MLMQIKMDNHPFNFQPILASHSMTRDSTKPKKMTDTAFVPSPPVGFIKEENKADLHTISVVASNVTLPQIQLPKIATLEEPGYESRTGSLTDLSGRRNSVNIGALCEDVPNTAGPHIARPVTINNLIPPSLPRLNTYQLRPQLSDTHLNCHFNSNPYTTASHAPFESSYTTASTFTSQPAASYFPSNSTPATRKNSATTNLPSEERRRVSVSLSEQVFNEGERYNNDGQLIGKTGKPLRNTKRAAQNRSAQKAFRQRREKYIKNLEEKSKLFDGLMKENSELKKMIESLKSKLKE
EXPERIMENT_NOTES: PBM E-score (8-mer binding enrichment) (E-score (-0.5 to 0.5)); higher = stronger / more preferred TF binding
CONDITION_DETAILS: protein concentration: 100 nM; construct: GST-full length
Over roughly 33,000 sequences, “E-score (-0.5 to 0.5)” has its median near -0.0059; the highest 2% begin near 0.26. For the sample, the highest values were picked, then their nearest neighbours and some sequences at random.
Binary call on PBM E-score: T from 0.1 upward, F beneath that.

INSERT INTO results (chain_sequence, system, assigned_class) VALUES
  ('ACTACTAC', 'Cin5 (UniProt P40917)', 'F'),
  ('CCACATAA', 'Cin5 (UniProt P40917)', 'T'),
  ('TTCCGGAA', 'Cin5 (UniProt P40917)', 'T'),
  ('ACACATAA', 'Cin5 (UniProt P40917)', 'T'),
  ('AATCAAAT', 'Cin5 (UniProt P40917)', 'T'),
  ('GATCAACA', 'Cin5 (UniProt P40917)', 'F'),
  ('CAATACAC', 'Cin5 (UniProt P40917)', 'F'),
  ('CTCAACAA', 'Cin5 (UniProt P40917)', 'T');

[in] Form field: PBM E-score at least 0.1? Entry: CAATACAA
[out] T

[in] Form field: PBM E-score at least 0.1? Entry: CTGCAAAC
[out] F

[in] Form field: PBM E-score at least 0.1? Entry: CAATACAG
[out] F

[in] Form field: PBM E-score at least 0.1? Entry: ACGAACGG
[out] F

[in] Form field: PBM E-score at least 0.1? Entry: AATACTGT
[out] T

[in] Form field: PBM E-score at least 0.1? Entry: ATATACTC
[out] T

[in] Form field: PBM E-score at least 0.1? Entry: AGTATAAC
[out] F

[in] Form field: PBM E-score at least 0.1? Entry: AATACTAT
[out] T

[in] Form field: PBM E-score at least 0.1? Entry: CCCGATAA
[out] F

[in] Form field: PBM E-score at least 0.1? Entry: TGTATAAA
[out] T

[in] Form field: PBM E-score at least 0.1? Entry: CTCTACAC
[out] F

[in] Form field: PBM E-score at least 0.1? Entry: ACTGGAGC
[out] F

[in] Form field: PBM E-score at least 0.1? Entry: ACTGTTGA
[out] F

[in] Form field: PBM E-score at least 0.1? Entry: AGTATATA
[out] T

[in] Form field: PBM E-score at least 0.1? Entry: GCATAGCA
[out] F

[in] Form field: PBM E-score at least 0.1? Entry: ATATACAC
[out] T

[in] Form field: PBM E-score at least 0.1? Entry: GTGCAAGA
[out] F

[in] Form field: PBM E-score at least 0.1? Entry: AATCAAAC
[out] T

[in] Form field: PBM E-score at least 0.1? Entry: AGTATATC
[out] T

====

SYSTEM: Cin5 (UniProt P40917)
Sequence: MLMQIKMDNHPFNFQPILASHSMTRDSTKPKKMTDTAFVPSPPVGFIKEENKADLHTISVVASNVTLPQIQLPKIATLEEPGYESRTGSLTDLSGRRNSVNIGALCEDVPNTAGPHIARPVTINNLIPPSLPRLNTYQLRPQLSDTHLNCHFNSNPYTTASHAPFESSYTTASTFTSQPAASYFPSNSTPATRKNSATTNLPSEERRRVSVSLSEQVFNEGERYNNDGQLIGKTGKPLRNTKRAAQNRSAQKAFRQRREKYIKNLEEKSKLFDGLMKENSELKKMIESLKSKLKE
EXPERIMENT_NOTES: PBM E-score (8-mer binding enrichment) (E-score (-0.5 to 0.5)); higher = stronger / more preferred TF binding
CONDITION_DETAILS: protein concentration: 100 nM; construct: GST-full length
In all, about 33,000 sequences were measured (“E-score (-0.5 to 0.5)”: median about -0.0059, highest 2% from about 0.26 on). This excerpt belongs to a sample that is enriched for the highest values.
ASSAY_ENDPOINT: PBM E-score
API doc: respond with a numeric literal and nothing else, no unit.

[in] Which PBM E-score is reported with Cin5 (UniProt P40917) for this entry: ATTAATGA ?
[out] 0.29

[in] Which PBM E-score is reported with Cin5 (UniProt P40917) for this entry: CTTTTGAC ?
[out] -0.0394

[in] Which PBM E-score is reported with Cin5 (UniProt P40917) for this entry: CTCTGATC ?
[out] -0.162

[in] Which PBM E-score is reported with Cin5 (UniProt P40917) for this entry: AGGCTTGA ?
[out] -0.0503

[in] Which PBM E-score is reported with Cin5 (UniProt P40917) for this entry: AAGGGGAG ?
[out] -0.252

[in] Which PBM E-score is reported with Cin5 (UniProt P40917) for this entry: ACCCCGAT ?
[out] 0.155

[in] Which PBM E-score is reported with Cin5 (UniProt P40917) for this entry: CTGGTTTC ?
[out] 0.0335

[in] Which PBM E-score is reported with Cin5 (UniProt P40917) for this entry: AGATGATA ?
[out] 0.212

[in] Which PBM E-score is reported with Cin5 (UniProt P40917) for this entry: ACCAATAC ?
[out] 0.104

[in] Which PBM E-score is reported with Cin5 (UniProt P40917) for this entry: TAAGGCAA ?
[out] 0.0779

Source listed as the supplement of paper PMC3334620.
